All figures here come from the supplement of paper PMC10567573.

B1: PPP2R2B (parent)
chain: RNTKRDVTLEASRENSKPRAILKP

# Variants of: B1
# protocol.details: protein stability index of a GFP-peptide fusion (GPS, HEK-293T) (PSI 1-6); higher = more stable;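 note: lentivirally expressed fusions sorted by FACS into six bins by GFP to DsRed ratio, PSI derived from sequencing read proportions per bin multiplied by bin number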
# measurement.context: c terminus: a fixed tail appended
result.type: protein stability index

seq.text	result.value
RNTKRDVTLEAERENSKPRAILKP [S12E]	4.95
RNTKRDVTLEASRENSKPRAVLKP [I21V]	4.6
RNTKRMVTLEASRENSKPRAILKP [D6M]	4.33
RNTKRDVTLEPSRENSKPRAILKP [A11P]	4.23
RNTKRDVSLEASRENSKPRAILKP [T8S]	4.3
RNTKRDLTLEASRENSKPRAILKP [V7L]	4.42
RNTKRDVYLEASRENSKPRAILKP [T8Y]	4.31
RNTKRDVTLEASRENSKPNAILKP [R19N]	4.7
RNTKRDVTLEASRENSKFRAILKP [P18F]	3.79
RNTKRDVTLEASRENSSPRAILKP [K17S]	4.04
RNYKRDVTLEASRENSKPRAILKP [T3Y]	3.84
RNTKRDVTLEASRQNSKPRAILKP [E14Q]	4.97
LNTKRDVTLEASRENSKPRAILKP [R1L]	4.62
RNTKRDVTLEASRENSKVRAILKP [P18V]	4.32
RNTKRDVTLEAMRENSKPRAILKP [S12M]	4.12
RNTKRDVQLEASRENSKPRAILKP [T8Q]	4.62
RNTKRDVTLEASRENSKPRIILKP [A20I]	4.32
RNTKRDVTLEASREQSKPRAILKP [N15Q]	4.73
RNTKRDVTLEASRENSKPRAILVP [K23V]	4.31
RNTKRDRTLEASRENSKPRAILKP [V7R]	4.59
RNTKRDVTLEASRENSNPRAILKP [K17N]	4.5
RNTKRDVTLEASRMNSKPRAILKP [E14M]	3.88
RNTKRDVTLEASRENTKPRAILKP [S16T]	4.2
RQTKRDVTLEASRENSKPRAILKP [N2Q]	4.06
RNTKRDYTLEASRENSKPRAILKP [V7Y]	4.63
RNTKRDVTLEASRENSKPRWILKP [A20W]	3.3
RNTKRDVTLAASRENSKPRAILKP [E10A]	4.52
RNTKRDVTLEAKRENSKPRAILKP [S12K]	4.34
RNTKADVTLEASRENSKPRAILKP [R5A]	5.17
RNAKRDVTLEASRENSKPRAILKP [T3A]	4.87
RNTKRDVKLEASRENSKPRAILKP [T8K]	4.86
RNTKRDVTIEASRENSKPRAILKP [L9I]	4.38
RNTKRDVTLEASRENSKPRAILKD [P24D]	3.69
RNFKRDVTLEASRENSKPRAILKP [T3F]	4.17
RNTKRDVTLEASRENLKPRAILKP [S16L]	4.16
RNTKRDVTLEASRENSKPRAILKA [P24A]	4.74
RNTKRDVTLEAVRENSKPRAILKP [S12V]	4.33
RFTKRDVTLEASRENSKPRAILKP [N2F]	4.51
RNTVRDVTLEASRENSKPRAILKP [K4V]	4.19
RNTKRDVTLEASRENSKNRAILKP [P18N]	4.55
RNTKRRVTLEASRENSKPRAILKP [D6R]	4.29
RNTKRDVTLEASRNNSKPRAILKP [E14N]	4.72
RNTKRDSTLEASRENSKPRAILKP [V7S]	4.58
RNTKRDVTLEASRENSKPRAPLKP [I21P]	5.15
RNTKRDVTLEASRENSKPRAILKI [P24I]	3.32
RNPKRDVTLEASRENSKPRAILKP [T3P]	4.53
RNTKRDVTLEASRDNSKPRAILKP [E14D]	4.4
RNTKRDVTLEASRENSKPRAILKF [P24F]	3.56
RNTKRDVTLEASRENQKPRAILKP [S16Q]	4.61
RNTKRDVTLEASRENSKPRNILKP [A20N]	4.64
RNTKRDVTLEASRENSKPRSILKP [A20S]	4.48
RNTKRDVTLEASRENSKPRAILAP [K23A]	4.5
RNTKRDVTLEASRENSKPRAILHP [K23H]	4.57
RNTKRDVTLEASRENSKPRAILKK [P24K]	4.26
RNTKRDVTLEASRERSKPRAILKP [N15R]	4.22
RNTKEDVTLEASRENSKPRAILKP [R5E]	5.03
RNTKRDVTSEASRENSKPRAILKP [L9S]	4.89
RNSKRDVTLEASRENSKPRAILKP [T3S]	4.61
RNTKRDVTLEASREMSKPRAILKP [N15M]	4.09
RNTKRDVTLEASAENSKPRAILKP [R13A]	4.92
RNTKYDVTLEASRENSKPRAILKP [R5Y]	4.26
RNTKRDVTLEASLENSKPRAILKP [R13L]	4.44
RNTKRDDTLEASRENSKPRAILKP [V7D]	4.86
RNTKRDVTLEASRENSKGRAILKP [P18G]	4.86
RNTKRDVTLEASRENRKPRAILKP [S16R]	4.24
RNTKRDVTLEASNENSKPRAILKP [R13N]	4.83
RNTKRDVTLEASPENSKPRAILKP [R13P]	4.46
RNTKRDVTLEASREWSKPRAILKP [N15W]	3.77
GNTKRDVTLEASRENSKPRAILKP [R1G]	4.9
RNTKRDVTLEASRENSKPIAILKP [R19I]	4.39
RNEKRDVTLEASRENSKPRAILKP [T3E]	4.88
RITKRDVTLEASRENSKPRAILKP [N2I]	4.69
RNTKRDVTLEMSRENSKPRAILKP [A11M]	4.36
RNTKRDVTLEASRENSIPRAILKP [K17I]	4.33
RNTKRDVTLEASRENSKPAAILKP [R19A]	4.2
